details: in ethyl acetate, 293.15 K
property: solubility (mole fraction)

1. Clc1cc(Cl)cc(Cl)c1; 0.195

---

conditions: in acetone, 288.15 K
property: solubility (mole fraction)

1. Clc1cc(Cl)cc(Cl)c1; 0.079

---

settings: in acetone, 280.65 K
property: solubility (mole fraction)

1) Clc1cc(Cl)cc(Cl)c1; 0.0581

---

conditions: in isobutanol, 295.65 K
property: solubility (mole fraction)

1. Clc1cc(Cl)cc(Cl)c1; 0.0804

---

details: in acetone, 285.65 K
property: solubility (mole fraction)

1) Clc1cc(Cl)cc(Cl)c1; 0.0718

---

details: in ethyl acetate, 288.15 K
property: solubility (mole fraction)

1. Clc1cc(Cl)cc(Cl)c1; 0.164
